experiment: AUC in mouse xenografted with human MIAPaCa2 cells at 14 mg/kg, iv administered as single dose; format: ADME, organism-based; parameters: dose 14 mg/kg; conditions: in vivo
readout_name: AUC (ng·h/mL)

>>> measured_value("O=C1c2ccc3c4c(c(NCCN5CCCC5)cc(c24)C(=O)N1CCCN1CCOCC1)C(=O)N(CCCN1CCOCC1)C3=O")
30600

====

test: Volume of distribution at steady state in mouse xenografted with human MIAPaCa2 cells at 14 mg/kg, iv administered as single dose; format: ADME, organism-based; conditions: in vivo, read-out: Vdss
readout_name: Vd (L/kg)

>>> measured_value("O=C1c2ccc3c4c(c(NCCN5CCCC5)cc(c24)C(=O)N1CCCN1CCOCC1)C(=O)N(CCCN1CCOCC1)C3=O")
2.2

====

assay: Half life in mouse xenografted with human MIAPaCa2 cells at 0.96 mg/kg, iv administered as single dose; assay type: ADME, organism-based; settings: in vivo
readout_name: half-life (min)

>>> measured_value("O=C1c2cc(-c3ccc(CN4CCCC4)cc3)c3c4c(cc(NCCN5CCCC5)c(c24)C(=O)N1CCCN1CCOCC1)C(=O)N(CCCN1CCOCC1)C3=O")
2220

====

assay: Apparent volume of distribution in mouse xenografted with human MIAPaCa2 cells at 9.1 mg/kg, iv administered as single dose; type: ADME, organism-based; conditions: in vivo, read-out: Vz
readout_name: Vd (L/kg)

>>> measured_value("O=C1c2ccc3c4c(c(NCCN5CCCC5)cc(c24)C(=O)N1CCCN1CCOCC1)C(=O)N(CCCN1CCOCC1)C3=O")
27.8

====

experiment: Cmax in mouse xenografted with human MIAPaCa2 cells at 0.96 mg/kg, iv administered as single dose; assay type: ADME, organism-based; set-up: route intravenous, dose 0.96 mg/kg; settings: in vivo
readout_name: Cmax (ng/mL)

>>> measured_value("O=C1c2cc(-c3ccc(CN4CCCC4)cc3)c3c4c(cc(NCCN5CCCC5)c(c24)C(=O)N1CCCN1CCOCC1)C(=O)N(CCCN1CCOCC1)C3=O [QN-302]")
4180

====

experiment: AUC in mouse xenografted with human MIAPaCa2 cells at 0.96 mg/kg, iv administered as single dose; format: ADME, organism-based; parameters: dose 0.96 mg/kg; conditions: in vivo
readout_name: AUC

>>> measured_value("O=C1c2cc(-c3ccc(CN4CCCC4)cc3)c3c4c(cc(NCCN5CCCC5)c(c24)C(=O)N1CCCN1CCOCC1)C(=O)N(CCCN1CCOCC1)C3=O [QN-302]")
"5860 ng·h/mL"

====

experiment: Clearance in mouse xenografted with human MIAPaCa2 cells at 14 mg/kg, iv administered as single dose; format: ADME, organism-based; details: in vivo
readout_name: clearance (L/h/kg)

>>> measured_value("O=C1c2ccc3c4c(c(NCCN5CCCC5)cc(c24)C(=O)N1CCCN1CCOCC1)C(=O)N(CCCN1CCOCC1)C3=O")
0.486

Entry source: ChEMBL document CHEMBL4725390
